Value source: patent US7432244

# Measured On: IGF-1 (human, UniProt P05019)
# Sequence (P05019 49-118): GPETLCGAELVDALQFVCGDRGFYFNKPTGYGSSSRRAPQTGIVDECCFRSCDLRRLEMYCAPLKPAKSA
# Assay Comment: competition phage ELISA
Result Type: IC50 (nM)
Number in nM, nothing else.

Use the examples below as a reference point.
                   binder  result_type  unit_spec  observed
0  SDCFESVEALRACMY [F1-G]         IC50         nM       968
1  GGCASDLAGFRYCWE [F2-A]         IC50         nM      1330
2  WRCAQDAGGWTYCWA [F2-M]         IC50         nM      1040

Let's switch to this binder now.
Query: Please look at this binder and report its IC50: VRCAWDLGGRAYCWA [F2-D]
Result: 249000
